- Tested On: SpoVD (CdSpoVD, CDR20291_2544; soluble construct SpovD 38-583) (Clostridioides difficile)
- Construct: pETGSTSUMO vector (NheI/XhoI), E. coli BL21(DE3) pLysS; fusion tag removed with ULP1
- Sequence (A0A9R0BM53 entry or part of it): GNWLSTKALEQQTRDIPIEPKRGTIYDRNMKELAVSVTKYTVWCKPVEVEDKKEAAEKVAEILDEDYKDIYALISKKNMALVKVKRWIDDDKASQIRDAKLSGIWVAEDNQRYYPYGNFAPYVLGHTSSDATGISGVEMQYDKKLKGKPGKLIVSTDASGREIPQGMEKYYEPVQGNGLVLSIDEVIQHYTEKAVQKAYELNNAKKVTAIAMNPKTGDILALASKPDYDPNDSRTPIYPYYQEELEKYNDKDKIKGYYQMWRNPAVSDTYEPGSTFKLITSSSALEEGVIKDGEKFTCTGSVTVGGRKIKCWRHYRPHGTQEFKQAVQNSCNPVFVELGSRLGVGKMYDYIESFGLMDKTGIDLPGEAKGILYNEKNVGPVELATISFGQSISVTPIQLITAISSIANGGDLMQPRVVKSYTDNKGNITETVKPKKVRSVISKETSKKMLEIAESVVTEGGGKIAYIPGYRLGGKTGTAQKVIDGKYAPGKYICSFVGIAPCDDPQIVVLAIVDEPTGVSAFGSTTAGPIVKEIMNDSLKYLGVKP
- Measurement Description: Bacillin (bocillin) inhibition assay, SpoVD
- Assay type: biochemical
- Conditions: FIG. 2; 1 μM protein, 15 min preincubation at 37° C., 20 μM bocillin; read-out: SpoVD IC50
Assay Metric: pIC50
FYI, pIC50 means -log10 of a concentration in mol per litre.

See these solved cases before continuing.
Structure As Smiles | Tested On | pIC50
O=C(Nc1ccccc1)[C@@H]1CC[C@@H]2CN1C(=O)N2OS(=O)(=O)O | SpoVD (CdSpoVD, CDR20291_2544; soluble construct SpovD 38-583) (Clostridioides difficile) | 3.99
Nc1nc(/C(=N/O)C(=O)N[C@@H]2C(=O)N3C(C(=O)O)=C(/C=C4\CCN([C@@H]5CCNC5)C4=O)CS[C@H]23)ns1 | SpoVD (CdSpoVD, CDR20291_2544; soluble construct SpovD 38-583) (Clostridioides difficile) | 4.20
O=C(CNC(=O)[C@@H]1CC[C@@H]2CN1C(=O)N2OS(=O)(=O)O)c1ccccc1 | SpoVD (CdSpoVD, CDR20291_2544; soluble construct SpovD 38-583) (Clostridioides difficile) | 4.20
Cc1onc(-c2ccccc2Cl)c1C(=O)N[C@@H]1C(=O)N2[C@@H]1SC(C)(C)[C@@H]2C(=O)O | SpoVD (CdSpoVD, CDR20291_2544; soluble construct SpovD 38-583) (Clostridioides difficile) | 5.21
CO/N=C(\C(=O)N[C@@H]1C(=O)N2C(C(=O)O)=C(COC(C)=O)CS[C@H]12)c1csc(N)n1 | SpoVD (CdSpoVD, CDR20291_2544; soluble construct SpovD 38-583) (Clostridioides difficile) | 5.11
CO[C@@]1(NC(=O)Cc2cccs2)C(=O)N2C(C(=O)O)=C(COC(N)=O)CS[C@@H]21 | SpoVD (CdSpoVD, CDR20291_2544; soluble construct SpovD 38-583) (Clostridioides difficile) | 6.03

q: Which value of pIC50 has been reported for O=C(NCc1ccccc1)[C@@H]1CC[C@@H]2CN1C(=O)N2OS(=O)(=O)O in the records?
a: 4.28

q: Which value of pIC50 has been reported for NC(=O)[C@@H]1CC[C@@H]2CN1C(=O)N2OS(=O)(=O)O in the records?
a: 3.78
